The measurements presented in this section are drawn from patent US7855292B2.

Target: CCK-1 receptor (Homo sapiens)
Construct: expressed in transfected cells; host or cells: CHO-K1
Sequence (P32238 1-428): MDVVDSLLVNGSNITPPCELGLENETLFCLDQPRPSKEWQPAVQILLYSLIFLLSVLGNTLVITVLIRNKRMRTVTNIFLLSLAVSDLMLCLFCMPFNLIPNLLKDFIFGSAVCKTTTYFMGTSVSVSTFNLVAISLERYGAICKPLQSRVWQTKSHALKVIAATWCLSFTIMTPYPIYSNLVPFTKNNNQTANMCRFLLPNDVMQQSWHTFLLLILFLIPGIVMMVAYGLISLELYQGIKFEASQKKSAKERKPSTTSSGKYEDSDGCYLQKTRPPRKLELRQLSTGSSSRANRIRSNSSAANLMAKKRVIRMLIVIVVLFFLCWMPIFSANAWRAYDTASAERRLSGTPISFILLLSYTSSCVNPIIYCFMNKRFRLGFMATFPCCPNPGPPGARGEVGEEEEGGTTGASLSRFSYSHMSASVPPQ
Assay: CCK1 binding assay ([125I]-BH-CCK-8S displacement, CHO-K1 membranes)
Settings: membranes of CHO-K1 cells stably transfected with the CCK-1 receptor; 20 pM [125I]-BH-CCK-8S; 0.3 μM PD-134,308 present; 60 min at 21±3° C.; read-out: CCK1 pKi (converted)
metric name: Ki (nM)
Enter your answer as a number in nM; do not include the unit.

Would you please look over these solved cases?
compound	unit spec	Ki
COC(=O)[C@@H](NC(=O)c1ccc(I)cc1NS(=O)(=O)c1c(F)cccc1F)[C@H](C)c1ccc(Cl)c(Cl)c1	nM	126
CC(CNC(=O)c1ccc(I)cc1NS(=O)(=O)c1cccc2nsnc12)c1ccc(Cl)cc1 (stereo not drawn)	nM	79.4

Could you now look at the following compound, please?
Prompt: // Ki lookup, key: O=C(N[C@@H](Cc1ccc(Cl)c(Cl)c1)C(=O)O)c1ccc(Br)cc1NS(=O)(=O)c1cccc2nsnc12
Completion: 158

====

Items are presented alongside their recorded Ki.
Target: CCK2 receptor (Homo sapiens)
Construct: analyzed for ZFP expression as well as CCK2R induction upon addition of doxycycline to the culture medium; endogenous in cells
Sequence (P32239 whole entry): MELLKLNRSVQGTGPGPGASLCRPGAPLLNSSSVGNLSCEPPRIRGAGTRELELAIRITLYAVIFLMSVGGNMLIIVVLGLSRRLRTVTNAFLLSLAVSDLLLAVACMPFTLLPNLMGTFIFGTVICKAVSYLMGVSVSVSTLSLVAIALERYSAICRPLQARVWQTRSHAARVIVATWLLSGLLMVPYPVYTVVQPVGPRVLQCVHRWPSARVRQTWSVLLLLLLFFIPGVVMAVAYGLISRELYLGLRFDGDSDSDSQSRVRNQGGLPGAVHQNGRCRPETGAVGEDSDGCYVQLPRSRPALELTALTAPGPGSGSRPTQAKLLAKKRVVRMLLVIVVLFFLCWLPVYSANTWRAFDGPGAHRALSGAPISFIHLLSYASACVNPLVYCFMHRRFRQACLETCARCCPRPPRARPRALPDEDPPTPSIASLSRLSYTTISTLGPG
Test: CCK2 binding assay ([125I]-BH-CCK-8S displacement, HEKZFP membranes)
Settings: membranes of doxycycline-induced HEKZFP cells; 20 pM [125I]-BH-CCK-8S; 60 min at 21±3° C.; read-out: CCK2 pKi (converted)
Structures can show the parent of a compound that is named as a salt.
The figure you give is taken to be in nM; do not add the unit.

molecule	metric name	measured
O=C(N[C@@H](Cc1ccc(Cl)cc1)C(=O)O)c1cc(Cl)c(Cl)cc1NS(=O)(=O)c1cccc2nsnc12	Ki	31.6

Prompt: May I ask what Ki has been recorded for COC(=O)[C@H](Cc1ccc(F)c(Br)c1)NC(=O)c1ccc(Br)cc1NS(=O)(=O)c1cccc2nsnc12 ?
Completion: 200

Prompt: Repeat with O=C(N[C@@H](Cc1ccc(Cl)c(Cl)c1)C(=O)O)c1ccc(I)cc1NS(=O)(=O)c1cccc2nsnc12
Completion: 31.6

Prompt: Next entry: O=C(N[C@H](Cc1ccc(Cl)cc1Cl)C(=O)O)c1ccc(Cl)cc1NS(=O)(=O)c1c(F)cccc1F
Completion: 63.1

Prompt: And the next one, CN(CCc1ccccn1)C(=O)c1ccc(Cl)cc1NS(=O)(=O)c1cccc2nsnc12 [Example 51, hydrochloride] ?
Completion: 794

Prompt: Lookup O=C(O)C[C@@H](Cc1ccc(Cl)c(Cl)c1)NC(=O)c1ccc(Cl)cc1NS(=O)(=O)c1cccc2nccnc12
Completion: 7940

====

Target: CCK-1 receptor (Homo sapiens)
Construct: expressed in transfected cells; host or cells: CHO-K1
Experiment: CCK1 binding assay ([125I]-BH-CCK-8S displacement, CHO-K1 membranes)
Conditions: membranes of CHO-K1 cells stably transfected with the CCK-1 receptor; 20 pM [125I]-BH-CCK-8S; 0.3 μM PD-134,308 present; 60 min at 21±3° C.; read-out: CCK1 pKi (converted)
Recorded Ki, one value per entry.
// note: answer is a bare numeric in µM

Sample answers from the record:
molecule	assay system	Ki [µM]
O=C(N[C@H](Cc1ccccc1)C(=O)O)c1ccc(I)cc1NS(=O)(=O)c1c(F)cccc1F	CCK-1 receptor (Homo sapiens)	0.0794
O=C(N[C@H](Cc1ccc(Cl)cc1)C(=O)O)c1cc(Cl)ccc1NS(=O)(=O)c1cccc2nsnc12	CCK-1 receptor (Homo sapiens)	0.316
O=C(N[C@@H](Cc1ccc2ccccc2c1)C(=O)O)c1ccc(Cl)cc1NS(=O)(=O)c1cccc2nccnc12	CCK-1 receptor (Homo sapiens)	0.158
C[C@@H](NC(=O)c1ccc(Cl)cc1NS(=O)(=O)c1cccc2nsnc12)C(O)(c1ccccc1)c1ccccc1	CCK-1 receptor (Homo sapiens)	0.158
O=C(N[C@@H](Cc1cc(F)c(Cl)cc1Cl)C(=O)O)c1ccc(I)cc1NS(=O)(=O)c1cccc2nsnc12	CCK-1 receptor (Homo sapiens)	0.501

Prompt: Looking for the measured Ki of CC(CNC(=O)c1ccc(Br)cc1NS(=O)(=O)c1cccc2nsnc12)c1ccc(Cl)cc1 (stereo not shown) , can you help?
Completion: 0.126

Prompt: Then COC(=O)[C@H](Cc1ccc(F)c(Br)c1)NC(=O)c1ccc(I)cc1NS(=O)(=O)c1c(F)cccc1F ?
Completion: 0.316

Prompt: C[C@H](CN1C(=O)c2cc(Br)cc(NS(=O)(=O)c3cccc4nsnc34)c2C1=O)c1ccccc1 , same question.
Completion: 1.26

Prompt: Similarly, O=C(N[C@@H](Cc1ccc(Cl)cc1Cl)C(=O)O)c1ccc(I)cc1NS(=O)(=O)c1cccc2nsnc12 ?
Completion: 0.398

Prompt: Same for O=C(N[C@@H](Cc1ccc(Cl)cc1)C(=O)O)c1cc(Cl)ccc1NS(=O)(=O)c1cccc2nsnc12
Completion: 1.58

====

Molecular target: CCK2 receptor (Homo sapiens)
Construct: analyzed for ZFP expression as well as CCK2R induction upon addition of doxycycline to the culture medium; endogenous in cells
Assay: CCK2 binding assay ([125I]-BH-CCK-8S displacement, HEKZFP membranes)
Conditions: membranes of doxycycline-induced HEKZFP cells; 20 pM [125I]-BH-CCK-8S; 60 min at 21±3° C.; read-out: CCK2 pKi (converted)
metric name: Ki

molecule	measured
O=C(N[C@@H](Cc1ccc(Cl)cc1Cl)C(=O)O)c1ccc(Br)cc1NS(=O)(=O)c1c(F)cccc1F [Example 41]	50.1 nM
O=C(N[C@H](Cc1cccc(Br)c1)C(=O)O)c1ccc(I)cc1NS(=O)(=O)c1cccc2nsnc12 [Example 115]	79.4 nM
CC(CNC(=O)c1ccc(I)cc1NS(=O)(=O)c1cccc2nsnc12)c1ccc(Cl)c(Cl)c1 (stereo not drawn) [Example 39]	251 nM

Prompt: # input molecule: COC(=O)[C@H](Cc1ccc(Cl)c(Br)c1)NC(=O)c1ccc(Br)cc1NS(=O)(=O)c1cccc2nsnc12 [Example 142] ; wanted: its Ki
Completion: 631 nM

Prompt: Try the molecule COC(=O)[C@H](Cc1ccc(F)c(Br)c1)NC(=O)c1ccc(Br)cc1NS(=O)(=O)c1cccc2nccnc12 [Example 151]
Completion: 126 nM

Prompt: Also O=C(O)/C(=C/c1ccc(Cl)c(Cl)c1)NC(=O)c1cc(Cl)c(Cl)cc1NS(=O)(=O)c1cccc2nsnc12 [Example 144] ?
Completion: 50.1 nM

Prompt: Here is the next molecule: O=C(NC1Cc2ccccc2C1)c1ccc(Cl)cc1NS(=O)(=O)c1cccc2nsnc12 [Example 50]
Completion: 6310 nM

Prompt: Also check O=C(N[C@@H](Cc1ccccc1)C(=O)O)c1ccc(I)cc1NS(=O)(=O)c1cccc2scnc12 [Example 28]
Completion: 79.4 nM

Prompt: Repeat with O=C(N[C@@H](Cc1csc2ccccc12)C(=O)O)c1ccc(Cl)cc1NS(=O)(=O)c1cccc2nccnc12 [Example 66]
Completion: 501 nM

Prompt: What about this molecule? O=C(N[C@@H](Cc1ccsc1)C(=O)O)c1ccc(Cl)cc1NS(=O)(=O)c1cccc2nccnc12 [Example 87]
Completion: 158 nM

Prompt: Next up: O=C(N[C@@H](Cc1ccc(Cl)c(Cl)c1)C(=O)O)c1ccc(Br)cc1NS(=O)(=O)c1cccc2nsnc12 [Example 131]
Completion: 15.8 nM

Prompt: Again, but for Cc1ccc(CC(NC(=O)c2ccc(I)cc2NS(=O)(=O)c2cccc3nccnc23)C(=O)O)cc1 (stereo in doubt) [Example 79]
Completion: 1260 nM

Prompt: Consider next the molecule O=C(N[C@@H](Cc1ccc(F)cc1)C(=O)O)c1ccc(Cl)cc1NS(=O)(=O)c1cccc2nsnc12 [Example 76] in the same way.
Completion: 39.8 nM

Prompt: Then what about the molecule C[C@@H](CNC(=O)c1ccc(Br)cc1NS(=O)(=O)c1c(F)cccc1F)c1ccccc1 [Example 38] ?
Completion: 2000 nM

Prompt: Now consider CC(CNC(=O)c1ccc(Br)cc1NS(=O)(=O)c1c(F)cccc1F)c1ccc(Cl)cc1 (stereo not drawn) [Example 24] .
Completion: 1260 nM

Prompt: Try this molecule too: O=C(N[C@H](Cc1ccccc1)C(=O)O)c1ccc(I)cc1NS(=O)(=O)c1c(F)cccc1F [Example 17]
Completion: 2510 nM

Prompt: Could you do the same for O=C(N[C@@H](Cc1ccc(Cl)c(I)c1)C(=O)O)c1ccc(I)cc1NS(=O)(=O)c1cccc2nsnc12 [Example 92] , please?
Completion: 31.6 nM

Prompt: Next molecule up: O=C(N[C@@H](Cc1ccc(Cl)c(Br)c1)C(=O)O)c1ccc(Cl)cc1NS(=O)(=O)c1cccc2nccnc12 [Example 146]
Completion: 25.1 nM
